tested-on: Zap-70 (Homo sapiens)
Construct: Kinases are expressed as either kinase domains or full length constructs; made in house
Sequence (P43403 whole entry, species assumed, the tested form may be a part): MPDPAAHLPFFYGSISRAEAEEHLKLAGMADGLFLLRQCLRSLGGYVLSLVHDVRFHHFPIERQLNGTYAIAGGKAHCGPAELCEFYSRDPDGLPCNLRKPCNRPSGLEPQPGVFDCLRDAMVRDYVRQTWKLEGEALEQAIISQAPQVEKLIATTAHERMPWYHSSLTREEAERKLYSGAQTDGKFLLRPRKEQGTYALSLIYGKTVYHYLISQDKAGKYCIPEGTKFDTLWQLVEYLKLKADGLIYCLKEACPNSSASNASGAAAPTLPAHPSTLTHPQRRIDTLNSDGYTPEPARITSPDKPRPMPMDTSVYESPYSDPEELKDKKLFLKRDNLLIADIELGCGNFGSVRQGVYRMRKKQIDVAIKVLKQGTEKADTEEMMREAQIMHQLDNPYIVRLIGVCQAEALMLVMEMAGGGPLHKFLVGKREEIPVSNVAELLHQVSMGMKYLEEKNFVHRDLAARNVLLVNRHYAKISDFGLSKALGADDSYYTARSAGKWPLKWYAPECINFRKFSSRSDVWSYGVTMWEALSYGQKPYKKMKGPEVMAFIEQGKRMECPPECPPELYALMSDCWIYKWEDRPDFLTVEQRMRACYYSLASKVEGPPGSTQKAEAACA
experimental-details: Kinase inhibition assay (33P transfer), Zap-70
Format: biochemical
condition-set: read-out: Zap-1
pIC50: −log10 of the molar value.
Let's look at some compounds and their measured pIC50.

Challenge: Find the recorded pIC50 belonging to COc1cc(Nc2ncnc(-n3c(NC4CCc5ccccc54)nc4ccccc43)n2)cc(OC)c1OC (stereo not shown) and report it.
Response given: < 5.05

Next:
Challenge: Find the recorded pIC50 belonging to CC(C)(C)c1ccc(Nc2ncnc(-n3c(N)nc4ccccc43)n2)cc1 and report it.
Response given: < 4.90

---

List of IC50 tested on Lyn (Homo sapiens).
Sequence (P07948 whole entry, species assumed): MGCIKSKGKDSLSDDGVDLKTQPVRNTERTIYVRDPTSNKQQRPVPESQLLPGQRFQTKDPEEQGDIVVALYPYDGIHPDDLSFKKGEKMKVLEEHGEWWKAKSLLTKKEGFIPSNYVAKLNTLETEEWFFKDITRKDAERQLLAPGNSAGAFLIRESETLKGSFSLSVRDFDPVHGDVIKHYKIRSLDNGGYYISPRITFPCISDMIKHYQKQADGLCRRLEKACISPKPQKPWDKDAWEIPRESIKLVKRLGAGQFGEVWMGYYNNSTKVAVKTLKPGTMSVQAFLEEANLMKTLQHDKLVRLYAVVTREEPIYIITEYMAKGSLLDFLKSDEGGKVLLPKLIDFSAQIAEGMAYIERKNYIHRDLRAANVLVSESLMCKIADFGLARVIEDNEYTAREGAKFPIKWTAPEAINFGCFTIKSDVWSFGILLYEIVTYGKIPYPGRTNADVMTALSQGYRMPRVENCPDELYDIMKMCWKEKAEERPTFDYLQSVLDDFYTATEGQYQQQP

Take a look at these entries with their results.
Challenge: Value wanted: IC50 (Lyn (Homo sapiens)) of entry COc1cc(Nc2ncnc(N3c4ccccc4CC3C)n2)cc(OC)c1OC (stereo not drawn)
Response given: < 1.02 µM

Challenge: Value wanted: IC50 (Lyn (Homo sapiens)) of entry Cc1cccc(Nc2ncnc(Nc3ccc4[nH]ccc4c3)n2)c1
Response given: < 1.26 µM

Challenge: Value wanted: IC50 (Lyn (Homo sapiens)) of entry COc1cc(Nc2ncnc(-n3c(N[C@@H](C)c4ccccc4)nc4ccccc43)n2)cc(OC)c1OC
Response given: < 0.804 µM

Next:
Challenge: Value wanted: IC50 (Lyn (Homo sapiens)) of entry c1coc(-c2cc(Nc3ncnc(Nc4ccc(N5CCOCC5)cc4)n3)[nH]n2)c1
Response given: 0.989 to 5.93 µM

Challenge: Value wanted: IC50 (Lyn (Homo sapiens)) of entry COc1cc(Nc2ncnc(Nc3ccc(Br)c(Cl)c3)n2)cc(OC)c1OC
Response given: < 0.857 µM

Challenge: Value wanted: IC50 (Lyn (Homo sapiens)) of entry COc1cc(Nc2ncnc(Nc3cc(-c4ccccc4)n[nH]3)n2)cc(OC)c1OC
Response given: < 0.954 µM

Challenge: Value wanted: IC50 (Lyn (Homo sapiens)) of entry COc1cc(Nc2ncnc(-n3c(Nc4ccccc4)nc4ccccc43)n2)cc(OC)c1OC
Response given: 0.852 to 5.11 µM

Challenge: Value wanted: IC50 (Lyn (Homo sapiens)) of entry COc1ccc(Nc2ncnc(Nc3cc(OC)c(OC)c(OC)c3)n2)cc1OC
Response given: > 10.9 µM

Challenge: Value wanted: IC50 (Lyn (Homo sapiens)) of entry COc1cc(Nc2ncnc(Nc3cc(F)ccc3F)n2)cc(OC)c1OC
Response given: 1.03 to 6.16 µM

---

Let's look at some compounds and their measured pIC50.
tested-on: Kdr (Homo sapiens, UniProt P35968)
Construct: Kinases are expressed as either kinase domains or full length constructs; made in house
Sequence (P35968 20-1356, species assumed): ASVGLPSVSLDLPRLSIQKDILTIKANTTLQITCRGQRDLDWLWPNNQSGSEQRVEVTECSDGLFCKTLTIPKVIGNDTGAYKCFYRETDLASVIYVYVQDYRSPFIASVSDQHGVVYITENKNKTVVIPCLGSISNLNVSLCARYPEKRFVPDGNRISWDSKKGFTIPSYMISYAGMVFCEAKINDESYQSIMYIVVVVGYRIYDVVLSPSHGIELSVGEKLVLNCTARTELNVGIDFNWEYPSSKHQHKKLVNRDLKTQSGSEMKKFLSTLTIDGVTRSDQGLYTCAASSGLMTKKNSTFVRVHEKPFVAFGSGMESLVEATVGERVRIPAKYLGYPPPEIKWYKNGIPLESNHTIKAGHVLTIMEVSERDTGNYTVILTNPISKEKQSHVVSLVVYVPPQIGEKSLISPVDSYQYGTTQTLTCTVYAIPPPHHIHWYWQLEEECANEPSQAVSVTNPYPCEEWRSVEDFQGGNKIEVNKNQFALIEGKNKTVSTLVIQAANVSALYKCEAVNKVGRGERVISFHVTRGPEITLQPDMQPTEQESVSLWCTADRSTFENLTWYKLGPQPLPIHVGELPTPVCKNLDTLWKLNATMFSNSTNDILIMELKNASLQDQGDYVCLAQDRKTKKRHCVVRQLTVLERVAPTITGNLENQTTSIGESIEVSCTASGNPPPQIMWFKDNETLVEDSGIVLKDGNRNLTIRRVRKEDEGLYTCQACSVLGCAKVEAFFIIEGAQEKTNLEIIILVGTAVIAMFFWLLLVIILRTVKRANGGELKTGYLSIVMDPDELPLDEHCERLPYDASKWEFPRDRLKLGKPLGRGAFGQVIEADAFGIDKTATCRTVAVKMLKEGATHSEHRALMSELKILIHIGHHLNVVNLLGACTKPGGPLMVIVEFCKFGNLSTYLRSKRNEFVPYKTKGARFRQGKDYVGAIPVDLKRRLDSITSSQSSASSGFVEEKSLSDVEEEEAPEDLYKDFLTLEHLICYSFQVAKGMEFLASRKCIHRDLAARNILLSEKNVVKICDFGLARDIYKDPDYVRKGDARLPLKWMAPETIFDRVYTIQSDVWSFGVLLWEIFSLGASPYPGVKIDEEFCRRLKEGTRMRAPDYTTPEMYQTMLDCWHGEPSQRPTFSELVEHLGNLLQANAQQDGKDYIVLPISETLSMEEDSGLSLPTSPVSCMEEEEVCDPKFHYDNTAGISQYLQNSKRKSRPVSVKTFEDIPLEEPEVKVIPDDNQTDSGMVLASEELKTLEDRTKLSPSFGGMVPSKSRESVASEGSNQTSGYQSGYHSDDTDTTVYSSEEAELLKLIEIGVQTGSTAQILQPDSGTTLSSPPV
experimental-details: Kinase inhibition assay (33P transfer), Kdr
Format: biochemical
condition-set: read-out: KDR-1
pIC50: −log10 of the molar value.

Take a look at these entries with their results.
Challenge: Find the recorded pIC50 belonging to COc1cc(Nc2ncnc(Nc3cc(-c4ccc(Cl)c(Cl)c4)n[nH]3)n2)cc(OC)c1OC and report it.
Response given: 5.31 to 6.09

Challenge: Find the recorded pIC50 belonging to COc1ccc(CNc2ncnc(Nc3ccc4c(cnn4Cc4ccccc4)c3)n2)cc1OC and report it.
Response given: < 5.02

Challenge: Find the recorded pIC50 belonging to COc1ccc(-c2cn[nH]c2Nc2ncnc(Nc3cc(OC)c(OC)c(OC)c3)n2)cc1OC and report it.
Response given: < 5.03

Challenge: Find the recorded pIC50 belonging to c1ccc(Cn2ncc3cc(Nc4ncnc(Nc5ccc(N6CCCCC6)cc5)n4)ccc32)cc1 and report it.
Response given: 5.30 to 6.08

Challenge: Find the recorded pIC50 belonging to COc1cc(Nc2ncnc(NCc3ccccc3)n2)cc(OC)c1OC and report it.
Response given: 5.02 to 5.18

Next:
Challenge: Find the recorded pIC50 belonging to COC(=O)c1ccc(-c2cc(Nc3ncnc(Nc4cccc(C(N)=O)c4)n3)[nH]n2)cc1 and report it.
Response given: < 4.98

Challenge: Find the recorded pIC50 belonging to O=C(O)Cc1ccc(Nc2ncnc(Nc3cc(-c4ccccc4)n[nH]3)n2)cc1 and report it.
Response given: > 5.99

Challenge: Find the recorded pIC50 belonging to Nc1ncnc(-n2c(N)nc3ccccc32)n1 and report it.
Response given: 4.98 to 5.75

---

Let's look at some compounds and their measured IC50.
tested-on: Lck (Homo sapiens, UniProt P06239)
Construct: Kinases are expressed as either kinase domains or full length constructs; made in house
Sequence (P06239 whole entry, species assumed, the tested form may be a part): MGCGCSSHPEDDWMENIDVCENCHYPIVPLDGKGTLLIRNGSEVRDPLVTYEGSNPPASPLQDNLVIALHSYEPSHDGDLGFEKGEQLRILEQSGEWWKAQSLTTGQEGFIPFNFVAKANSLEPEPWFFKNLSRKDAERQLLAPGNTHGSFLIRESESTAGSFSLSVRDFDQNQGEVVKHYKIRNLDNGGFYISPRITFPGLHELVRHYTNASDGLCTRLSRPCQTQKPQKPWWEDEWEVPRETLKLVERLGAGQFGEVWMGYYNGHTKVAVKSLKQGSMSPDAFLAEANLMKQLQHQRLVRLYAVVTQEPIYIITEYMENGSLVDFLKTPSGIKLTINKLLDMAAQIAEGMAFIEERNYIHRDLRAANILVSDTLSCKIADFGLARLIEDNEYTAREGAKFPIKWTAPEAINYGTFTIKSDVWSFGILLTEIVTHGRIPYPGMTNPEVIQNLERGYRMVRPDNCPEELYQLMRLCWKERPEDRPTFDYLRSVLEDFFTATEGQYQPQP
experimental-details: Kinase inhibition assay (33P transfer), Lck
Format: biochemical
condition-set: read-out: Lck-1

Take a look at these entries with their results.
Challenge: Find the recorded IC50 belonging to O=c1[nH]c2ccccc2n1-c1ncnc(Nc2ccccc2[N+](=O)[O-])n1 [Compound 493] and report it.
Response given: > 12.9 µM

Challenge: Find the recorded IC50 belonging to COc1ccc(CNc2nc3ccccc3n2-c2ncnc(Nc3cccc(CC(=O)O)c3)n2)cc1 [Compound 534] and report it.
Response given: 7.27 to 9.35 µM

Challenge: Find the recorded IC50 belonging to COc1cc(Nc2ncnc(Nc3ccc4c(cnn4Cc4ccccc4)c3)n2)cc(OC)c1OC [Compound 177] and report it.
Response given: < 0.827 µM

Challenge: Find the recorded IC50 belonging to COc1ccc(Nc2ncnc(NC[C@@H]3CCCO3)n2)cc1OC [Compound 790] and report it.
Response given: > 13.6 µM

Challenge: Find the recorded IC50 belonging to CCN1CCCC1CNc1ncnc(Nc2ccc(OC)c(OC)c2)n1 (centres unmarked) [Compound 781] and report it.
Response given: > 12.6 µM

Next:
Challenge: Find the recorded IC50 belonging to COc1cc(Nc2ncnc(-n3c(NCc4ccccc4C)nc4ccccc43)n2)cc(OC)c1OC [Compound 511] and report it.
Response given: < 0.804 µM

Challenge: Find the recorded IC50 belonging to CN(c1cccc(Cl)c1)c1ncnc(Nc2cc(C(C)(C)C)on2)n1 [Compound 754] and report it.
Response given: > 12.5 µM

---

tested-on: IGFR-1 (Homo sapiens)
Construct: Kinases are expressed as either kinase domains or full length constructs; made in house
Sequence (P08069 31-1367): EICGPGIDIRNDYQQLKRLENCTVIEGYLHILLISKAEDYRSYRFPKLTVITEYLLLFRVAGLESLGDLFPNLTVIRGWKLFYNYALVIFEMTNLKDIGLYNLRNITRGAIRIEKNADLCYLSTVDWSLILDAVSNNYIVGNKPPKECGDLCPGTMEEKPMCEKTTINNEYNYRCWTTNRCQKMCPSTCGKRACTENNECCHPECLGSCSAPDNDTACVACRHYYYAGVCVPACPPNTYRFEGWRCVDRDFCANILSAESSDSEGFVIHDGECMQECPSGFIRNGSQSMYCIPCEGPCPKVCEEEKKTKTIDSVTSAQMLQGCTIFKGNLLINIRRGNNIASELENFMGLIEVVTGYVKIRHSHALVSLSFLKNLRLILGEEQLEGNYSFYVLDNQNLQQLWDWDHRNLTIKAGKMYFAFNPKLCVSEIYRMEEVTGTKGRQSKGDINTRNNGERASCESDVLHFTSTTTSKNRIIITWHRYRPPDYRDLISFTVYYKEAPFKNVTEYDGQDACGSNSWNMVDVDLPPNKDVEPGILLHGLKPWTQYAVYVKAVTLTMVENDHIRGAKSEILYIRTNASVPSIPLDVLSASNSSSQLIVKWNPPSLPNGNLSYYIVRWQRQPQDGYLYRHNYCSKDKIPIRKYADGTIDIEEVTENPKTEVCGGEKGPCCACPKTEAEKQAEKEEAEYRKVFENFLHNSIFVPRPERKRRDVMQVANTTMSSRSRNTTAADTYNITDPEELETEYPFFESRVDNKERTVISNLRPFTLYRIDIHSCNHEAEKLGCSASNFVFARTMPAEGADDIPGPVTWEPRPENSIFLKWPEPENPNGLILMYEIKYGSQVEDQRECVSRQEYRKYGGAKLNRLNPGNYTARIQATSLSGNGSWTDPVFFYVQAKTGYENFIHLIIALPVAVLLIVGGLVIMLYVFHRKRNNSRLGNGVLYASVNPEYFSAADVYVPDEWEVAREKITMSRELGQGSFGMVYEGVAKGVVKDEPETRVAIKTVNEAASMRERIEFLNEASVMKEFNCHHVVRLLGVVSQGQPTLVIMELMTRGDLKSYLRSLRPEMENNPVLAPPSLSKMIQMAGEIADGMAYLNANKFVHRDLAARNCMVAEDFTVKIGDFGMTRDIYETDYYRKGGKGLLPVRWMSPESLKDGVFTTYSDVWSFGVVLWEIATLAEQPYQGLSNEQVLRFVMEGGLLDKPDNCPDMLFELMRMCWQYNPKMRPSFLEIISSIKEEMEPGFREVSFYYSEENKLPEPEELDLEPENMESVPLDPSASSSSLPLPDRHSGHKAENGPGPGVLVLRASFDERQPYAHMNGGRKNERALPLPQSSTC
experimental-details: Kinase inhibition assay (33P transfer), IGFR-1
Type: biochemical
condition-set: Table 2, kinase inhibition class
assay-metric: IC50

Challenge: Value wanted: IC50 (IGFR-1 (Homo sapiens)) of entry COc1cc(Nc2ncnc(N3CCN(c4ccccn4)CC3)n2)cc(OC)c1OC
Response given: > 10.6 µM

Challenge: Value wanted: IC50 (IGFR-1 (Homo sapiens)) of entry COc1cc(Nc2ncnc(-n3ncc4ccccc43)n2)cc(OC)c1OC
Response given: > 11.9 µM

Challenge: Value wanted: IC50 (IGFR-1 (Homo sapiens)) of entry OCCCNc1ncnc(-c2ccccc2)n1
Response given: > 19.5 µM

Challenge: Value wanted: IC50 (IGFR-1 (Homo sapiens)) of entry COCCOc1ccc(Nc2ncnc(Nc3ccc4[nH]ccc4c3)n2)cc1OCCOC
Response given: 5.33 to 7.77 µM

Kindly review the next compound as well.
Challenge: Value wanted: IC50 (IGFR-1 (Homo sapiens)) of entry COc1cc(Nc2ncnc(N(CC(=O)OC(C)(C)C)c3ccc4c(c3)OCO4)n2)cc(OC)c1OC
Response given: > 8.8 µM

---

tested-on: Itk (Homo sapiens, UniProt Q08881)
Construct: Kinases are expressed as either kinase domains or full length constructs; made in house
Sequence (Q08881 1-620): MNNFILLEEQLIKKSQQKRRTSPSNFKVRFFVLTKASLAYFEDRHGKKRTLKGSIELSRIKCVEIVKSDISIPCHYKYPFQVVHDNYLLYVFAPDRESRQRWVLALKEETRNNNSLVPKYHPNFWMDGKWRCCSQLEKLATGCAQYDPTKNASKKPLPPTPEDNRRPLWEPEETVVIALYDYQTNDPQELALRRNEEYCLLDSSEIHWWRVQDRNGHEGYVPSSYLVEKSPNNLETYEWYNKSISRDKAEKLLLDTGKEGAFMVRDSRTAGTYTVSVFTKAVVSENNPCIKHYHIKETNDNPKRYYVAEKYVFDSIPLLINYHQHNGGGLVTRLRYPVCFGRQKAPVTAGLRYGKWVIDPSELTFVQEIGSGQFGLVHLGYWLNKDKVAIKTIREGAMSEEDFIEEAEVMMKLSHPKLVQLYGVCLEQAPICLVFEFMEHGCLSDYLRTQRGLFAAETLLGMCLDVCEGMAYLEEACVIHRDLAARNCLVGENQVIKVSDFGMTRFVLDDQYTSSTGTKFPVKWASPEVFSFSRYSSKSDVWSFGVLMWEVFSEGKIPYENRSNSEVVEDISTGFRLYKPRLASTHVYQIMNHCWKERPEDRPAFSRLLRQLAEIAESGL
experimental-details: Kinase inhibition assay (33P transfer), Itk
Assay type: biochemical
condition-set: read-out: Itk-1
Let's look at some compounds and their measured IC50.

Take a look at these entries with their results.
Challenge: Find the recorded IC50 belonging to COc1ccc(Nc2ncnc(Nc3cc(OC)c(OC)c(OC)c3)n2)cc1OCCN1CCOCC1 and report it.
Response given: > 8.78 µM

Challenge: Find the recorded IC50 belonging to N#Cc1cccc(Nc2ncnc(-n3c(=O)[nH]c4ccccc43)n2)c1 and report it.
Response given: > 13.7 µM

Challenge: Find the recorded IC50 belonging to CCN(c1ccccc1)c1ncnc(Nc2cc(OC)c(OC)c(OC)c2)n1 and report it.
Response given: > 11.8 µM

Challenge: Find the recorded IC50 belonging to COc1ccc(Nc2ncnc(-n3c(N)nc4ccccc43)n2)cn1 and report it.
Response given: > 13.5 µM

Next:
Challenge: Find the recorded IC50 belonging to COc1ccc(Nc2ncnc(N(C)c3ccc(Cl)c(Cl)c3)n2)cc1OC and report it.
Response given: > 11.1 µM

Challenge: Find the recorded IC50 belonging to COc1cc(Nc2ncnc(-n3c(NCc4nc5ccccc5[nH]4)nc4ccccc43)n2)cc(OC)c1OC and report it.
Response given: 4.58 to 6.69 µM
